Below is a list of entries, each paired with its recorded Binding Signal (fold over 6E7 parental antibody) value.
target.or.system: T1, human TREM2 (triggering receptor expressed on myeloid cells 2) (human) (UniProt Q9NZC2)
T1 sequence (looked up): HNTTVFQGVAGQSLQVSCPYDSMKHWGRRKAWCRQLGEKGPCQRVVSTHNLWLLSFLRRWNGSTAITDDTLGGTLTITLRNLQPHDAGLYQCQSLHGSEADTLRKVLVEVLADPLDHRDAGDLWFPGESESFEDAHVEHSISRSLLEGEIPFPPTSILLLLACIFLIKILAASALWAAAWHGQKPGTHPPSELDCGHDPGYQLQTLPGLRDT
run.description: 2nd screen, 100 nM Ab
Form entry: value (fold) — number only.

>>> experimental_value("6E7 antibody affinity modulation variant V91 (antibody, V domains shown) VH: EVQLVQSGAEVKKPGESLKISCKGSGYSFTSYWIAWVRQMPGKGLEWMGIIYPDDSDTRYSPSFQGQVTISADKSISTAYLQWSSLKASDTAMYFCARQRTFYYDSSDYFDYWGQGTLVTVSS VL: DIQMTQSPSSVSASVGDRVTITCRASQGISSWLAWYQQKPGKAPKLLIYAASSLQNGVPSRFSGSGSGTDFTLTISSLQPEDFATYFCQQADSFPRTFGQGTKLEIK")
0.61

Task item: Give its Binding Signal (fold over 6E7 parental antibody) value. Item: 6E7 antibody affinity modulation variant V57 (antibody, V domains shown) VH: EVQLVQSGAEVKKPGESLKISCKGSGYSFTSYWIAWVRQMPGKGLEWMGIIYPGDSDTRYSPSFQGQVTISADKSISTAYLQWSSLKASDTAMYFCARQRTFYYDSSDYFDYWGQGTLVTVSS VL: DIQMTQSPSSVSASVGDRVTITCAASQGISSWLAWYQQKPGKAPKLLIYAASSLQNGVPSRFSGSGSGTDFTLTISSLQPEDFATYFCQQADSFPRTFGQGTKLEIK
Reply: 0.85
